molecular target: human α1B-adrenoceptor (Homo sapiens, UniProt P35368); construct: CHO cells stably expressing either the full‐length human α1A, α1B, or α1D‐adrenoceptor; assay: [3H]prazosin whole-cell competition binding, CHO-α1B cells; conditions: single-component inhibition curve; given as log KD (negative); mean ± SE mean
Sequence (P35368 whole entry): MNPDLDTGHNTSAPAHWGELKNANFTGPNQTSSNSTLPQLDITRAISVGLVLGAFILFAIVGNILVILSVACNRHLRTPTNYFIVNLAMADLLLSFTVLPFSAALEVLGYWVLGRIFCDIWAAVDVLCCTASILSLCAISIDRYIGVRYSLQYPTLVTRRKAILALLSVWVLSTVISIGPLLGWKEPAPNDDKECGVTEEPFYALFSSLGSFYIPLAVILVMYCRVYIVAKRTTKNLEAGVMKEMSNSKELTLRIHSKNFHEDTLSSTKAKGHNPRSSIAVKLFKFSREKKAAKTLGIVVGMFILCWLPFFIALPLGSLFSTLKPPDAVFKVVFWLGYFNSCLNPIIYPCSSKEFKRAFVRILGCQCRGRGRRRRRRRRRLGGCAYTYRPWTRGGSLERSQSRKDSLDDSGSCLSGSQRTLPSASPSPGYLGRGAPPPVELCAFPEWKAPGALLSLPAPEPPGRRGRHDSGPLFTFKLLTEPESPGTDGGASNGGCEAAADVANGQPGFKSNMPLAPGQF
Label yes for high-side Log KD α1B (at or above -8) and no for low-side Log KD α1B (below it).

# example entries with known answers
• COc1cccc(OC)c1OCCNCC1CSc2ccccc2O1 (stereo not shown) = yes
• COC1(C2=NCCN2)COc2ccccc2O1 (stereo not shown) = yes
• COc1ccccc1N1CCN(CCn2c(=O)[nH]c3c([nH]c4ccccc43)c2=O)CC1 = no

Exercise: Decide: is the reported value of Log KD α1B for COc1cccc2c1CCC[C@H]2CN(C)CCc1ccc2ccoc2c1.CS(=O)(=O)O equal to or greater than -8?
Solution: yes

Exercise: Decide: is the reported value of Log KD α1B for CN1CCN(c2ccc(Nc3c4ccccc4nc4ccccc34)cc2)CC1 equal to or greater than -8?
Solution: yes

---

target: human α1A-adrenoceptor (Homo sapiens, UniProt P35348); construct: CHO cells stably expressing either the full‐length human α1A, α1B, or α1D‐adrenoceptor; test: [3H]prazosin whole-cell competition binding, CHO-α1A cells; conditions: ratio; 1 = no selectivity for a subtype over another
Sequence (P35348 whole entry): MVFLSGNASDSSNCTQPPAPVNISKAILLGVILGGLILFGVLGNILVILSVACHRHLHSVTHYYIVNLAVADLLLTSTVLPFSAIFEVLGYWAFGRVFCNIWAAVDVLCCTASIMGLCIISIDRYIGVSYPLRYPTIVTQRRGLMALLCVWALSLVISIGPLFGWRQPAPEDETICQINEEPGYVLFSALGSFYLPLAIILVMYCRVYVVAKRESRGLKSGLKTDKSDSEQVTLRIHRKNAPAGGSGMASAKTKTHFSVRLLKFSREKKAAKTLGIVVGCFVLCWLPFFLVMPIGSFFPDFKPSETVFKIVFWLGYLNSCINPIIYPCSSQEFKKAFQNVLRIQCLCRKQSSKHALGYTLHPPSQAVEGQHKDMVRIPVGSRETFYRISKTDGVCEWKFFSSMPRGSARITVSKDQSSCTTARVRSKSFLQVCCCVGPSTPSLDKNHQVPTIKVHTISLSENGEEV
ASSAY_METRIC: selectivity α1A vs α1B

// solved cases for selectivity α1A vs α1B follow
* CC(C)OC(=O)c1cc2c(OCC(O)CNC(C)(C)C)cccc2[nH]1 (stereo not drawn) [SDZ 21009] | >17
* CC(C)(C)NCC(O)COc1cccc2[nH]c(=O)[nH]c12 (stereo not drawn) [CGP 12177] | >14

Let us move to another entry and its selectivity α1A vs α1B.
For record CCN1CCCC1CNC(=O)c1cc(S(N)(=O)=O)ccc1OC (stereo not drawn) [Sulpiride] the listed selectivity α1A vs α1B is >31

---

molecular target: human α1B-adrenoceptor (Homo sapiens, UniProt P35368); construct: CHO cells stably expressing either the full‐length human α1A, α1B, or α1D‐adrenoceptor; assay: [3H]prazosin whole-cell competition binding, CHO-α1B cells; conditions: ratio; 1 = no selectivity for a subtype over another
selectivity α1B vs α1D for assorted molecules
Give only the figure.

For record Cc1c[nH]c(=O)n(CCCN2CCN(c3ccccc3OCC(F)(F)F)CC2)c1=O the listed selectivity α1B vs α1D is 9.1

For record CN(C)CCC=C1c2ccccc2CCc2ccccc21 the listed selectivity α1B vs α1D is 1.1

For record CCC1(C2=NCCN2)Cc2ccccc2O1 (stereo not drawn) the listed selectivity α1B vs α1D is 5.0

---

biological target: full-length human α1D-adrenoceptor (Homo sapiens); experiment: [3H]prazosin whole-cell competition binding, CHO-α1D cells; conditions: single-component inhibition curve; given as log KD (negative); mean ± SE mean
Sequence (P25100 whole entry): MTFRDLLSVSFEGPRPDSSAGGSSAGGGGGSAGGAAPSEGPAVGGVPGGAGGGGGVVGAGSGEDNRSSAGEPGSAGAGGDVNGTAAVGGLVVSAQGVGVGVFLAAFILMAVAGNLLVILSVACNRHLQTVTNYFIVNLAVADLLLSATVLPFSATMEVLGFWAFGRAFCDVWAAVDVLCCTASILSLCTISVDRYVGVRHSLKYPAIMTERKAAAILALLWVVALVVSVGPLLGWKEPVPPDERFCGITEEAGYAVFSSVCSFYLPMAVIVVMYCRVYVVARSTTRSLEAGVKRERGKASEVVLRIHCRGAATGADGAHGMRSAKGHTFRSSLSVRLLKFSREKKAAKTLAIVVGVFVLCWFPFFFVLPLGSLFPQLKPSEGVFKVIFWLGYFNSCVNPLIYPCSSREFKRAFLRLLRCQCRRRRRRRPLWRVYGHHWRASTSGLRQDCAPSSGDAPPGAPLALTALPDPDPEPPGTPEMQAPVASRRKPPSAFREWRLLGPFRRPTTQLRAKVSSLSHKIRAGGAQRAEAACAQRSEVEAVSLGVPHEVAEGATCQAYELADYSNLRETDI
Label 1 for high-side Log KD α1D (at or above -6) and 0 for low-side Log KD α1D (below it).

- COc1ccccc1N1CCN(CCCNc2c(C)c(=O)n(C)c(=O)n2C)CC1 [5‐methyl‐urapidil]: 1
- N=C(CC(O)COc1ccccc1-c1ccccc1)N1CCCCC1 (centres unmarked) [AH11110A]: 1
- CC1c2ccccc2CN1CC1=NCCN1 (centres unmarked) [BRL44408]: 1

Kindly consider the entry below.
Exercise: Decide: is the reported value of Log KD α1D for COc1cc2nc(N3CCN(C(=O)COc4c(OC)cccc4C(C)C)CC3)nc(N)c2cc1OC [Rec15‐2615] equal to or greater than -6?
Solution: 0

Hello, the source for this data is paper PMC7327383, in case you need it.
